# System: U251 CNS
# assay: NCI-60 one-dose screen, 48 h
# measurement.context: 10 µM unless noted
Compounds without any hit were thinned out: in the full panel of roughly 83,000, 20% have a hit. Active and inactive are the calls of the source. Rule for the calls: active = growth percent below 10; inactive = the rest.
Respond only with the outcome that fits, drawn from active, inactive

COc1ccc(C(O)c2cc3c(N)c(C(=O)Nc4cccc(Cl)c4)sc3nc2C)cc1 (centres undefined): inactive
C#Cc1cccc(Oc2ccc(NC(=O)CCl)cc2)c1: inactive

Exercise: I'd appreciate the recorded outcome for Cc1cc(N2CCCCC2)nc(N2CCN(CC(=O)Nc3ccc4c(ccn4Cc4ccccc4)c3)CC2)n1 from this test.
Solution: inactive

Exercise: I'd appreciate the recorded outcome for Cc1ccc(C)n1/C=C/n1c(C)ccc1C from this test.
Solution: inactive

Exercise: I'd appreciate the recorded outcome for COc1ccc(-c2oc(=O)ccc2-c2cc(OC)c(OC)c(OC)c2)cc1O from this test.
Solution: inactive

Exercise: I'd appreciate the recorded outcome for O=C1C(Cl)=C(NCCN2CCOCC2)C(=O)c2ncccc21 from this test.
Solution: inactive

Exercise: I'd appreciate the recorded outcome for CC(C)[C@@]12C[C@@H](OC(=O)COC(=O)c3ccccc3)[C@@](C)(O1)[C@@H]1CC[C@@H](C)[C@H]1[C@@H]2OC(=O)/C=C/c1ccccc1 from this test.
Solution: inactive

Exercise: I'd appreciate the recorded outcome for O=C(/C=C/C12c3ccccc3C(c3ccccc31)C1C(=O)NC(=O)C12)c1ccccn1 (centres undefined) from this test.
Solution: active

Exercise: I'd appreciate the recorded outcome for CN1CCN(Cc2cc(NC(=O)c3cccc(C#Cc4cccc5[nH]nc(N)c45)c3)cc(C(F)(F)F)c2)CC1 from this test.
Solution: inactive

====

# System: NCI/ADR-RES ovarian
# assay: NCI-60 one-dose screen, 48 h (100 = growth as untreated, 0 = no growth, -100 = all killed)
# measurement.context: 10 µM unless noted
About 83,000 compounds went through this panel and 20% of them were active in at least one assay; those are over-represented in the sample as a whole.
Would you please tag the item met when its growth is 60% or above, and not met when it is below?

Consider the worked cases shown below.
O=C(CSc1nc2ccc([N+](=O)[O-])cc2[nH]1)Nc1cccc([N+](=O)[O-])c1: met
COc1ccc2c(c1)c(-c1nc(-c3cn(C)c4ncccc34)cs1)cn2CCO: met

Exercise: For this molecule, is measured growth 60% or higher? N=C(N)SCc1cccc2c(CSC(=N)N)cccc12
Solution: met

Exercise: For this molecule, is measured growth 60% or higher? Cn1cc(-c2nonc2-c2c[nH]c3ccc(F)cc23)c2cc(Br)ccc21
Solution: not met

====

# System: SF-295 CNS
# assay: NCI-60 one-dose screen, 48 h
# measurement.context: 10 µM unless noted
This is part of a sample that, as a whole, favours compounds with a hit. Of some 83,000 tested, about 20% had one in any assay. Active and inactive are the calls of the source. How the source made its calls: active means growth percent below 10; inactive means the rest.
Respond only with the outcome that fits, drawn from active, inactive

CC/C=C1/C(=O)C=C[C@@H]1C/C=C\CCCC(=O)OC: inactive
Cc1cc2oc(=O)cc(CP(=O)(O)O)c2cc1O: inactive
Cc1c(Cl)cccc1C(=O)Nc1nc2c(s1)CN(C(=O)Nc1cccc(C(F)(F)F)c1)CC2: inactive
Cc1cccc(-n2c(C)nc3ccc(N4CCCNC4=O)cc3c2=O)c1: inactive
CCn1cc(CNc2ccc(C(=O)Nc3cc4cc(OC)c(OC)cc4c(C)n3)cc2)c(C)n1: inactive
O=C1NC(=O)c2c1c1c3ccccc3[nH]c1c1oc3cc(Br)ccc3c21: inactive
C[C@@H]1CC[C@@]2(OC1)O[C@H]1C[C@H]3[C@@H]4CC=C5C[C@@H](O[C@@H]6O[C@H](CO)[C@@H](O[C@@H]7O[C@@H](CO)[C@H](O)[C@H]7O)[C@H](O)[C@H]6O[C@@H]6O[C@@H](C)[C@H](O)[C@@H](O)[C@H]6O)CC[C@]5(C)[C@H]4CC[C@]3(C)[C@H]1[C@@H]2C: active
COc1cccc(/C=C/C(=O)c2cc3c(N)c(C(=O)Nc4cccc(Cl)c4C)sc3nc2C)c1: active

Exercise: I'd appreciate the recorded outcome for CCc1cccc(Sc2cc(C(=O)N3Cc4ccc(OCCN(C)C)cc4C3)ccc2O)c1 from this test.
Solution: inactive

Exercise: I'd appreciate the recorded outcome for CS(=O)(=O)Nc1cncc(-c2ccc3ncnc(Nc4ccc(F)c(Cl)c4)c3c2)c1 from this test.
Solution: inactive

Exercise: I'd appreciate the recorded outcome for CC(C)c1ccc(NC(=O)Nc2ccc(NC(=O)c3ccccc3N)cc2)cc1 from this test.
Solution: active

Exercise: I'd appreciate the recorded outcome for COc1cccc(NC(=O)c2cccc(C3CCc4c(cc(OC)c(OC)c4OC)O3)c2)c1 (centres undefined) from this test.
Solution: inactive

Exercise: I'd appreciate the recorded outcome for O=C(N=Nc1c(O)[nH]c2ccccc12)Nc1ccc(Cl)cc1 from this test.
Solution: inactive

Exercise: I'd appreciate the recorded outcome for COc1cc2nc(Nc3cccc(F)c3)nc(Nc3cc(C)[nH]n3)c2cc1OC from this test.
Solution: active

Exercise: I'd appreciate the recorded outcome for COc1cc2c(c(OC)c1OC)C(=O)CC(c1cccc(NC(=O)c3ccccc3Br)c1)O2 (centres undefined) from this test.
Solution: inactive

Exercise: I'd appreciate the recorded outcome for CCOC(=O)Nc1nc2ccc(SCC(C)C)cc2s1 from this test.
Solution: inactive

====

# Tested on: SK-MEL-5 melanoma
# assay: NCI-60 one-dose screen, 48 h
# measurement.context: 10 µM unless noted
About 83,000 compounds went through this panel and 20% of them were active in at least one assay; those are over-represented in the sample as a whole. The source made the active and inactive calls. The calls were made as follows: active = growth percent below 10; inactive = the rest.
Respond only with the outcome that fits, drawn from active, inactive

Consider the worked cases shown below.
O=C(CCC(=O)c1nc2ncccc2[nH]1)NN1C(=O)CSC1c1ccc(Cl)cc1 (stereo not given): inactive
COc1ccc2c(c1)c(-c1nonc1-c1cn(C)c3ccc(OC)cc13)cn2C: inactive
O=[N+]([O-])/C(=C\c1ccco1)c1ccccc1Cl: inactive
CCN(CCO)CC(C)Nc1ccc([N+](=O)[O-])c2sc3ccccc3c(=O)c12 (stereo not given): inactive
O=C(N/N=C/c1ccc(Cl)cc1Cl)c1ccc2nc(-c3ccc(Cl)cc3)[nH]c2c1: inactive
COc1cc2nc(Nc3cccc(F)c3)nc(Nc3cc(C)[nH]n3)c2cc1OC: active

Exercise: I'd appreciate the recorded outcome for Cc1nn(-c2ccccc2)c(/N=C/N(C)C)c1/C=C/C(=O)c1ccc(Cl)cc1 from this test.
Solution: inactive

Exercise: I'd appreciate the recorded outcome for Cc1cccc(NC(=O)CSc2nc3ccc([N+](=O)[O-])cc3[nH]2)c1 from this test.
Solution: inactive

Exercise: I'd appreciate the recorded outcome for COc1ccc(C(C)=O)cc1S(N)(=O)=O from this test.
Solution: inactive

====

# Tested on: NCI-H322M lung
# assay: NCI-60 one-dose screen, 48 h (100 = growth as untreated, 0 = no growth, -100 = all killed)
# measurement.context: 10 µM unless noted
# Description: Growth inhibition of the NCI-H322M human Non-Small Cell Lung tumor cell line is measured as a screen for anti-cancer activity. Cells are grown in 96 well plates and exposed to the test compound for 48 hours. Compounds are tested at a single concentration, which is 10^-5 M for most compounds. The reported endpoint is percent growth (GI% or GIPRCNT), where numbers from 0 - 100% represent growth inhibition, and numbers from -100% - 0 represent cell death. […]
This is part of a sample that, as a whole, favours compounds with a hit. Of some 83,000 tested, about 20% had one in any assay.
Task for the reader: assign each of the following molecules its reported growth.
Give bare numbers, in %.

CC(O)c1ncc(/C=C2\SC(=S)N(Cc3ccccc3)C2=O)s1 (stereo not given): 100

I'm hoping you can list growth for every molecule here, please.
1. COc1ccccc1NC(=O)c1ccc(/C=C/C(=O)c2nccn2C)cc1
2. COc1ccc2nc(Cl)c(/C=C/C(=O)c3ccc(NC(=O)CSc4nnc(-c5ccc(Cl)c(Cl)c5)n4-c4ccccc4)cc3)cc2c1
3. CC[C@]12C=CCN3CC[C@@]4(c5ccc(OC)cc5N(C)[C@H]4[C@@](O)(C(=O)OC)[C@@H]1OC(=O)CCCN1CCOCC1)[C@@H]32

Solution:
1: -93.4; 2: 93.6; 3: 106

Exercise: Specify reported growth for the molecule shown: Cc1cc(C)cc(Nc2ccc([N+](=O)[O-])c(NCCN3CCOCC3)n2)c1
Solution: 44.1

====

# Test system: T-47D breast
# assay: NCI-60 one-dose screen, 48 h (100 = growth as untreated, 0 = no growth, -100 = all killed)
# measurement.context: 10 µM unless noted
# Protocol: Growth inhibition of the T-47D human tumor cell line is measured as a screen for anti-cancer activity. Cells are grown in 96 well plates and exposed to the test compound for 48 hours. Compounds are tested at a single concentration, which is 10^-5 M for most compounds. The reported endpoint is percent growth (GI% or GIPRCNT), where numbers from 0 - 100% represent growth inhibition, and numbers from -100% - 0 represent cell death. For example, a value of 40 represents 60% growth inhibition. […]
This is part of a sample that, as a whole, favours compounds with a hit. Of some 83,000 tested, about 20% had one in any assay.
Task for the reader: assign each of the following molecules its reported growth.
Answers are plain numbers, in %.

I'm hoping you can list growth for every molecule here, please.
1. COc1ccc(C2=CN3CC=CCC3CC2=O)cc1 (stereo not given)
2. COc1ccc(C2C(C#N)=C(N)Oc3c2sc2c(Br)cccc32)cc1 (stereo not given)
3. C=CCn1c(SCC(=O)Nc2ccc(C(=O)/C=C/c3cc(OC)c(OC)c(OC)c3)cc2)nnc1-c1cc(-c2ccc(OC)cc2)nc2ccccc12
4. C/C(=N\O)C(=O)NCCCCCC(=O)Nc1ccccc1
5. Fc1ccc2c(c1)c(-c1nc(-c3c[nH]c4ncccc34)cs1)cn2CCCN1CCOCC1

Solution:
90.6
27.2
84.9
86.5
38.1

I'm hoping you can list growth for every molecule here, please.
1. COc1cc2c(c(OC)c1OC)C(=O)N[C@@H]1[C@@H](O)[C@@H](O)[C@H](O)C[C@@H]21
2. C=CCN=C(N)SCCCCCCSC(N)=NCC=C
3. COc1cc2ncnc(Nc3ccc(F)c(Cl)c3)c2cc1OCC(=O)N1CCN(c2ccc(F)cc2)CC1
4. CCNc1nc(-c2ccc(F)cc2)c(C#N)c(=O)n1C

Solution:
[100, 55.9, 75.2, 39.3]

Exercise: Specify reported growth for the molecule shown: CN1CCCc2cc(/C=C3/SC(=S)N(CCc4ccc(O)cc4)C3=O)ccc21
Solution: 84
